tested-target: UniProtKB P06401
assay-summary: T47D alkaline phosphatase assay for progesterone receptor modulator (antagonist) activity
Assay type: cell-based
Design: endogenous in cells; host or cells: T47D cells
condition-context: T47D cells, antagonist mode in the presence of 1 nM progesterone, 24 hours
pIC50: −log10 of the molar value.
readout-kind: pIC50

[P] Cn1c(C#N)ccc1-c1ccc(N)cc1
[Q] CCCCn1c(C#N)ccc1-c1ccc(NS(=O)(=O)CC)cc1
Hi, I'm comparing P with Q and wondering which one has the bigger number for pIC50. Any idea? Mark your answer with the label of the selected entry.
P
(P: 6.96, Q: 6.26)

[1] CCS(=O)(=O)Nc1ccc(-c2ccc(C#N)n2C)c(C#N)c1
[2] Cn1c(C#N)ccc1-c1ccc(NC#N)c(F)c1
# compare pIC50 for 1 vs 2 ; return the one with the smaller value Mark your answer with the label of the selected entry.
2
(2: 6.17, 1: 6.91)

###

tested-target: UniProtKB P06401
assay-summary: T47D alkaline phosphatase assay for progesterone receptor modulator (antagonist) activity
Format: cell-based
Set-up: endogenous in cells; host or cells: T47D cells
condition-context: T47D cells, antagonist mode in the presence of 1 nM progesterone, 24 hours
pIC50: −log10 of the molar value.
readout-kind: pIC50

Field: example entries. Status: answers known.
CC(C)S(=O)(=O)Nc1ccc(-c2ccc(C#N)n2C)c(C(F)(F)F)c1 [Example 56]    7.60
CC(C)COC(=O)Nc1ccc(-c2ccc(C#N)n2C)cc1 [Example 14]    6.42
CC(C)S(=O)(=O)Nc1cc(F)c(-c2ccc(C#N)n2C)cc1F [Example 50]    6.64
Cn1c(C#N)ccc1-c1ccc(NS(=O)(=O)CC(F)(F)F)cc1 [Example 19]    7.23
Cn1c(C#N)ccc1-c1ccc(NS(C)(=O)=O)cc1F [Example 40]    7.74

[a] CCCS(=O)(=O)Nc1ccc(-c2ccc(C#N)n2C)c(C(F)(F)F)c1 [Example 54]
[b] Cn1c(C#N)ccc1-c1ccc(NC(=O)c2ccco2)cc1 [Example 3]
[c] C=CCn1c(C#N)ccc1-c1ccc(NS(=O)(=O)CC)cc1 [Example 69]
Please put the entries in order of rising pIC50. Submit the labels in the order that the ranking request calls for.
c, b, a
(c: 6.22, b: 6.90, a: 8.03)

###

tested-target: UniProt P06401
assay-summary: T47D alkaline phosphatase assay for progesterone receptor modulator (antagonist) activity
Format: cell-based
Set-up: endogenous in cells; host or cells: T47D cells
condition-context: T47D cells
readout-kind: Active Dose (µM)

CCS(=O)(=O)Nc1ccc(-c2ccc(C#N)n2C)c(F)c1 [Example 41]    10
Cn1c(C#N)ccc1-c1ccc(NS(C)(=O)=O)cc1F [Example 40]    10
CCS(=O)(=O)Nc1ccc(-c2ccc(C#N)n2CCCc2ccccc2)cc1 [Example 71]    3
Cn1c(C#N)ccc1-c1cc(F)c(NS(C)(=O)=O)cc1F [Example 46]    10

[P] Cn1c(C#N)ccc1-c1ccc(NS(C)(=O)=O)c(C#N)c1 [Example 77]
[Q] CC(C)S(=O)(=O)Nc1ccc(-c2ccc(C#N)n2C)c(F)c1 [Example 44]
# compare Active Dose for P vs Q ; return the one with the smaller value Mark your answer with the label of the selected entry.
P
(P: 3 µM, Q: 10 µM)

###

tested-target: progesterone receptor (Homo sapiens, UniProt P06401)
Sequence (P06401 whole entry): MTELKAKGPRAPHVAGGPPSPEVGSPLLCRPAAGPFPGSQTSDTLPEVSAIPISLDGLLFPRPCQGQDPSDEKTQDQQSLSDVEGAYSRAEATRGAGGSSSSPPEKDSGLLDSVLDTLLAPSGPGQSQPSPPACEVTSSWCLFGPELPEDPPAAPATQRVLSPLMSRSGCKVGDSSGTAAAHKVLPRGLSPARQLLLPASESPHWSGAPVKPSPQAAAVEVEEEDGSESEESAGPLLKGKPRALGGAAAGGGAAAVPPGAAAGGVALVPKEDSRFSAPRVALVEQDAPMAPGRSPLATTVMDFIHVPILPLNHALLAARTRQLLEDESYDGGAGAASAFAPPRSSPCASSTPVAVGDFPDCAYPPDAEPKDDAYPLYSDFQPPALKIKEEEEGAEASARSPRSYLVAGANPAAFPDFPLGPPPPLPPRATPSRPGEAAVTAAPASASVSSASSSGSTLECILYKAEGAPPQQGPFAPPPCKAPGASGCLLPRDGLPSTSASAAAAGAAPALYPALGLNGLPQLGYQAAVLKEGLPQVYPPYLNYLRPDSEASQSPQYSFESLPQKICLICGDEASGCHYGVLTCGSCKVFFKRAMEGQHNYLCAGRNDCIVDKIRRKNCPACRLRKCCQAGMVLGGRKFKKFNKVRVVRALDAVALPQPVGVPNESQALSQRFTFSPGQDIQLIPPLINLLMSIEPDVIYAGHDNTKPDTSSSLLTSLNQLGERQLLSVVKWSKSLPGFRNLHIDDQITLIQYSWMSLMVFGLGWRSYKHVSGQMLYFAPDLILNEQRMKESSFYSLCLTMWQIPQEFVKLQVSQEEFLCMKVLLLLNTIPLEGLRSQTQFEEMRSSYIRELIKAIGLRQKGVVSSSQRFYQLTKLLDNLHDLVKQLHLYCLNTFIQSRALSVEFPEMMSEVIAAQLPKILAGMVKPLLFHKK
assay-summary: T47D alkaline phosphatase assay for progesterone receptor modulator (antagonist) activity
Format: cell-based
Design: endogenous in cells; host or cells: T47D cells
condition-context: T47D cells, antagonist mode in the presence of 1 nM progesterone, 24 hours
Description: An assay was performed to identify compounds having progesterone receptor modulator activity. This assay identifies progestins or antiprogestins by determining a compound's effect on alkaline phosphatase activity in T47D cells. […] Analysis of dose-response data. […] EC50 or IC50 values are calculated from the retransformed values. […]
# IC50 per record follows

Field: example entries. Status: answers known.
CCS(=O)(=O)Nc1ccc(-c2ccc(C#N)n2C)cc1F [Example 27]    0.0299 µM
Cc1ccc(S(=O)(=O)Nc2ccc(-c3ccc(C#N)n3C)cc2)cc1 [Example 22]    ~3 µM
CCCc1cc(-c2ccc(C#N)n2C)ccc1NC#N [Example 31]    < 0.3 µM
CC(C)c1cc(-c2ccc(C#N)n2C)ccc1NC#N [Example 32]    < 0.3 µM

GET /values?item= Cn1c(C#N)ccc1-c1ccc(NS(=O)(=O)c2ccccc2)cc1 [Example 21] &system= progesterone receptor (Homo sapiens, UniProt P06401) returns IC50: ~0.03 µM

GET /values?item= Cn1c(C#N)ccc1-c1ccc(N(S(C)(=O)=O)S(C)(=O)=O)cc1 [Example 17] &system= progesterone receptor (Homo sapiens, UniProt P06401) returns IC50: ~0.3 µM

###

tested-target: progesterone receptor (Homo sapiens)
assay-summary: T47D alkaline phosphatase assay for progesterone receptor modulator (antagonist) activity
Type: cell-based
Parameters: endogenous in cells; host or cells: T47D cells
condition-context: T47D cells, antagonist mode in the presence of 1 nM progesterone, 24 hours
readout-kind: IC50

Field: example entries. Status: answers known.
CCCCS(=O)(=O)Nc1ccc(-c2ccc(C#N)n2C)cc1    ~0.3 µM
CCc1cc(-c2ccc(C#N)n2C)ccc1NC#N    ~0.3 µM

Let's switch to this compound now.
GET /values?item= CC(=O)Nc1ccc(-c2ccc(C#N)n2C)cc1 &system= progesterone receptor (Homo sapiens) returns IC50: ~0.3 µM

###

tested-target: progesterone receptor (Homo sapiens, UniProt P06401)
assay-summary: T47D alkaline phosphatase assay for progesterone receptor modulator (antagonist) activity
Assay type: cell-based
Design: endogenous in cells; host or cells: T47D cells
condition-context: T47D cells, antagonist mode in the presence of 1 nM progesterone, 24 hours
readout-kind: IC50 (nM)

CCS(=O)(=O)Nc1ccc(-c2ccc(C#N)n2C)c(C(F)(F)F)c1    10.2
Cn1c(C#N)ccc1-c1ccc(NC(=O)c2ccccc2)cc1    90.5

[1] CCS(=O)(=O)Nc1cc(F)c(-c2ccc(C#N)n2C)c(F)c1
[2] CCCS(=O)(=O)Nc1ccc(-c2ccc(C#N)n2C)cc1
Hi, I'm comparing 1 with 2 and wondering which one has the bigger number for IC50. Any idea? Mark your answer with the label of the selected entry.
1
(1: 19 nM, 2: 9.8 nM)

The measurements presented in this section are drawn from patent US20070027201A1.
